Reference for the values: paper PMC12656239

Target: aryl hydrocarbon receptor (AhR) (Homo sapiens)
Assay: EROD induction in Caco-2 cells (endogenous AhR), abolished by AhR antagonist
quantity_name: pEC50
Worth noting: pEC50 values are minus log10 of concentrations stated in mol/L.

Q: I'd like to know its pEC50. The compound in question is Clc1cc2c(cc1Cl)Oc1cc(Cl)c(Cl)cc1O2
Result: 9.99
